Target: T1, rhTLR4 (recombinant human Toll-like receptor 4) (human, UniProt O00206 24-631)
T1 construct: Toll-like receptor 4, recombinant human (rhTLR4), bought; No catalogue number is printed; source: bought: R&D systems, Minneapolis, USA
T1 sequence (O00206 24-631): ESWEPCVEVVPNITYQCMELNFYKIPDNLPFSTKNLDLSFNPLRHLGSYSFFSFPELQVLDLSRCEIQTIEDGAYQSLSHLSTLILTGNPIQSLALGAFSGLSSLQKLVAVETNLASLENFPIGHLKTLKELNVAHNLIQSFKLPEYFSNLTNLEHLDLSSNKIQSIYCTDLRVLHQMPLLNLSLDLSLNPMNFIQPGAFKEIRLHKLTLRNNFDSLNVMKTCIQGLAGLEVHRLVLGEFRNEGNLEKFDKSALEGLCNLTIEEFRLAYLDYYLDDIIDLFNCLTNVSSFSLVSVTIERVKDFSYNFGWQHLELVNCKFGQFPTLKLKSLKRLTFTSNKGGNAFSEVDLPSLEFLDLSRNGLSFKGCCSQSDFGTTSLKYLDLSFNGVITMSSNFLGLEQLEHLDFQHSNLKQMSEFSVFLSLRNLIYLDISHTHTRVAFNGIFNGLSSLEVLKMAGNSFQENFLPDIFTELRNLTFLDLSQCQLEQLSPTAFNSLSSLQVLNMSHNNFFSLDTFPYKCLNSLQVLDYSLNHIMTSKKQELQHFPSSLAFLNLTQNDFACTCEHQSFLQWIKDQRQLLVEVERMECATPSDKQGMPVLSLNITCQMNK
Assay: BLI; BLItz system (ForteBio); rhTLR4 loaded on a Ni-NTA sensor, various amounts of peptide applied; biosensor hydrated 10 min in PBS; baseline 15 s, loading 60 s, baseline 30 s, association 60 s, dissociation 60 s
Details: both partners purified
Measured Kd, listed per entry for reference.
// return numeric value only (unit: nM, not printed)

Some solved entries appear below for comparison.
>>> print(df.to_string())
                                     binder  meas_value
0  GLNALKKVFQGIHEAIKLINNHVQ (source: synthetic peptide (solid-phase, Fmoc; reversed-phase HPLC, purity >95%)) [Pseudin-2]         800
1  GLNALKKVFQGIHEAIKKINNHVQ (source: synthetic peptide (solid-phase, Fmoc; reversed-phase HPLC, purity >95%)) [Ps-K18]        1500

Now let's try a different one.
Return reported Kd; argument: GLNALKKVFQGIHKAIKKINNHVQ (source: synthetic peptide (solid-phase, Fmoc; reversed-phase HPLC, purity >95%)) [Ps-K14-K18]
6900
